Test: plasma pharmacokinetics (HPLC-MS/MS, population PK model)
Settings: human, intravenous, 70 mg/m^2
reported.metric: AUC (ng·h/mL)
Value expressed in ng·h/mL; do not type the unit.

Reported AUC for CCc1cnn2c(NCc3ccc[n+]([O-])c3)cc(N3CCCC[C@H]3CCO)nc12 was 4980

---

Experiment: plasma pharmacokinetics (HPLC-MS/MS, population PK model)
Conditions: human, intravenous, 70 mg/m^2
reported.metric: concentration at 3 h (ng/mL)
Value expressed in ng/mL; do not type the unit.

Reported concentration at 3 h for CCc1cnn2c(NCc3ccc[n+]([O-])c3)cc(N3CCCC[C@H]3CCO)nc12 was 307
